Target under test: EPHB1 (UniProt P54762)
Sequence (P54762 whole entry, looked up): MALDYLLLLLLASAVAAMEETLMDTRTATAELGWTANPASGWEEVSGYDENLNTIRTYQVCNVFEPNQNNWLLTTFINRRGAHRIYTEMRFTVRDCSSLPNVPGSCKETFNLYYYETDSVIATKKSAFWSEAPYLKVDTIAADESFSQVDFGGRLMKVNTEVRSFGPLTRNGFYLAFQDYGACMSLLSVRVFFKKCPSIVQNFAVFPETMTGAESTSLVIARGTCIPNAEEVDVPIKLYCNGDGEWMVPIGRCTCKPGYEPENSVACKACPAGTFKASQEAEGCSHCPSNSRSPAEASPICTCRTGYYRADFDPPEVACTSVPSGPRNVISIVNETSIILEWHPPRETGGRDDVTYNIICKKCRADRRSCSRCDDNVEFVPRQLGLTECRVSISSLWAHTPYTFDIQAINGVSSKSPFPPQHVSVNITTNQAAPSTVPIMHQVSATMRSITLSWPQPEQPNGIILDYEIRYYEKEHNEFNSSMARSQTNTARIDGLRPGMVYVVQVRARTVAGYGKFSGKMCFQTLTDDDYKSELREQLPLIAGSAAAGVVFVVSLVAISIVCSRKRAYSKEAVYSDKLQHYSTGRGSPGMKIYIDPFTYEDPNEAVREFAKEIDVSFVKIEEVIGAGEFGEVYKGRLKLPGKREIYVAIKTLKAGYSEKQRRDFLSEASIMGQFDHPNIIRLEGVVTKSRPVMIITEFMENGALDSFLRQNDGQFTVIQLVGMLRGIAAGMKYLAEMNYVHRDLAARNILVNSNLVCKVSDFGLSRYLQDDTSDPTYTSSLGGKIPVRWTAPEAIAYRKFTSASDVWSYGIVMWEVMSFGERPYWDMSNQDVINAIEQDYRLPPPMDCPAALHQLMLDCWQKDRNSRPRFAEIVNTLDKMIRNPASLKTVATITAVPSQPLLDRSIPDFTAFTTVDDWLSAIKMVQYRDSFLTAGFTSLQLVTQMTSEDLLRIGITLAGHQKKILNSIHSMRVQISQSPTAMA
Assay protocol: phosphorylation enrichment, bacterial display (enrichment ratio); higher = better substrate or ligand; peptides without Tyr show the background
Classification scheme (phosphorylation enrichment): c1 (below 0.5), c2 (0.5 to below 0.7), c3 (0.7 or more)

Sequence string | Cat
LTTEAYEWEPR [ELMOD3_Y61] | c3
EREFKYGAHKF [OAT_Y50_N54K_YF] | c1
SVGVPYEPPEV [TP53_Y220_V217G] | c2
FCVDCYKNFVA [FHL1_Y213_YF] | c2
RLPNGYGLAFR [DLK1_Y262_S260N_YF] | c3
THQNSYQPGRK [CEFIP_Y210] | c1
ATARPYSPYII [LRP5_Y1528_R1529S] | c1
TAGEPYHDIRF [BAP1_Y223] | c2
PFRFIYMAVQH [PTPN11_Y515_Q510P_YF] | c3
NQSVRYDSSLK [ABCC8_Y1353_L1349Q] | c1
LFEDRYLLGTS [ASS1_Y87_YF] | c3
RVQKRYILDNV [RCN1_Y115_F117L] | c1
CTNIHYNYMCN [TP53_Y234_T231N] | c3
GHEFIYVDRMQ [PDGFRB_Y581_P584R_YF] | c1
HKLSFYEFDFE [BTK_Y40_YF] | c3
DEGVNYFMSKG [FBXO8_Y156] | c1
YEPDAYDDLDQ [ELP5_Y302] | c2
NACGLYFKLHN [GATA2_Y376_YF] | c2
AGQEDYDRLRP [CDC42_Y64] | c2
KFMVGYEMLAK [GALT_Y339_Q344K] | c1
LRRREYQRQDF [PRKRIP1_Y90_YF] | c2
VITTLYIGFLG [KCNQ1_Y267_L262V] | c3
DHYNQYEQQKM [CHD7_Y75] | c1
DLDFTYIYPNI [PTEN_Y27_L25F] | c3
PSQRRYVFFFS [PTEN_Y174_YF] | c3

###

Target under test: EPHB1 (UniProt P54762)
Assay protocol: phosphorylation enrichment, bacterial display (enrichment ratio); higher = better substrate or ligand; peptides without Tyr show the background
Catalogue of phosphorylation enrichment values
Value type: phosphorylation enrichment

Sequence string | Target under test | Reported result
GSESDYIVMPN [SCARB1_Y133] | EPHB1 (UniProt P54762) | 8.5
NLVSEYQQFQD [TUBB3_Y422_D417N_YF] | EPHB1 (UniProt P54762) | 0.739
ALTRSYIREKV [CYP2C8_Y243] | EPHB1 (UniProt P54762) | 0.388
INQGPYENHSV [ATP6V1B1_Y462_R465H] | EPHB1 (UniProt P54762) | 0.436
SSSAIYDNPDL [DCP1B_Y191_N195D] | EPHB1 (UniProt P54762) | 7.52
YGGRDYSLDEF [MYOF_Y1705] | EPHB1 (UniProt P54762) | 0.594
LTRDIYKNDFF [ROS1_Y2110_A2106T_YF] | EPHB1 (UniProt P54762) | 0.683
WLQKLYNNFVN [MYO5C_Y526] | EPHB1 (UniProt P54762) | 0.528
VIKDKYPKAHF [APTX_Y209_R213H_YF] | EPHB1 (UniProt P54762) | 0.285
VGGRIYIDDGL [PKLR_Y218] | EPHB1 (UniProt P54762) | 0.493
ALTDNYMYVVI [HAGH_Y61_L64V] | EPHB1 (UniProt P54762) | 12.9
MPLDQYSPSFP [FGFR1_Y776] | EPHB1 (UniProt P54762) | 0.399
VEEDTYTMPST [PTK2_Y407_D402V] | EPHB1 (UniProt P54762) | 0.879
IGSHAYGDQYR [IDH1_Y135_R132S] | EPHB1 (UniProt P54762) | 0.497
SSQAHYRLSAF [ADAMTS9_Y100] | EPHB1 (UniProt P54762) | 0.452
CRIELYRIVES [IGFBP1_Y181_V183I] | EPHB1 (UniProt P54762) | 1.82
GEYYRYLAEVA [YWHAG_Y133_D129E] | EPHB1 (UniProt P54762) | 1.13
FIILIYAMKKK [SLCO1B1_Y645_YF] | EPHB1 (UniProt P54762) | 0.179
KVDKECEVRVR [GHR_Y226_Y226C] | EPHB1 (UniProt P54762) | 0.513
NGTVTYAIIAG [CDH23_Y1672_V1675I] | EPHB1 (UniProt P54762) | 2.83
PGAPAYCVLME [MYO5A_Y1245_R1246C] | EPHB1 (UniProt P54762) | 3.07
EQLRAYLEGTC [HLA-C_Y183] | EPHB1 (UniProt P54762) | 0.467
TISPYYCQSLF [CRYAA_Y48_R49C] | EPHB1 (UniProt P54762) | 0.934
HFVDEYDPTIE [KRAS_Y32] | EPHB1 (UniProt P54762) | 0.784
CEHRGSLFLAI [TEK_Y897_Y897S_YF] | EPHB1 (UniProt P54762) | 0.55
GADDSYFTARS [ZAP70_Y492_YF] | EPHB1 (UniProt P54762) | 0.299
KDFETYQSFQN [CTNND2_Y1157_P1159S_YF] | EPHB1 (UniProt P54762) | 2
LAAAKYKLNVD [SMARCA2_Y1190] | EPHB1 (UniProt P54762) | 0.426
LEFNEYFRDLN [HPRT1_Y198_D194E_YF] | EPHB1 (UniProt P54762) | 1.21

###

Target under test: Grb2 SH2 (UniProt P62993)
Sequence (P62993 whole entry, looked up): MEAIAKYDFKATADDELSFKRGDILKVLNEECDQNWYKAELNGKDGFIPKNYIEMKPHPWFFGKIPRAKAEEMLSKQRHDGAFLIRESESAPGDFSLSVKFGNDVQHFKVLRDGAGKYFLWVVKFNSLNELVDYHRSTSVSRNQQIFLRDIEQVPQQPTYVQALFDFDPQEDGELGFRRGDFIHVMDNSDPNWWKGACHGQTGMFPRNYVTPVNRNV
Assay protocol: SH2 binding enrichment of the phosphorylated peptide, bacterial display (enrichment ratio); higher = better substrate or ligand; peptides without Tyr show the background
Outcome: MET for SH2 binding enrichment of at least 0.7; NOT MET for anything lower.

Sequence string | Cat
DDDPEDRKFLE [UPF3B_Y160_Y160D] | MET
RPDSPYSRLHD [DOK2_Y271_P274L] | MET
NACGLYFKLHN [GATA2_Y376_YF] | MET
SSMNDYNPLEK [MYOC_Y479_I477N] | MET
GGRKGYGDFSR [RECQL5_Y478] | MET
VEEDTYTMPST [PTK2_Y407_D402V] | NOT MET
KGEDFYCVTFH [FHL1_Y149_C153Y_YF] | MET
WRRLIYRCQVG [NR2E3_Y81_R76W] | MET
VREIRYQGGNR [VWF_Y1570] | NOT MET
ARSHIYTFSSC [MEFV_Y741_A744S] | MET
LRRREYQRQDF [PRKRIP1_Y90_YF] | NOT MET
NKKYHYRELPV [ERN2_Y860_H858Y] | MET

###

Listing of entries alongside the reported phosphorylation enrichment.
Target under test: EPHB2 (UniProt P29323)
Sequence (P29323 whole entry, looked up): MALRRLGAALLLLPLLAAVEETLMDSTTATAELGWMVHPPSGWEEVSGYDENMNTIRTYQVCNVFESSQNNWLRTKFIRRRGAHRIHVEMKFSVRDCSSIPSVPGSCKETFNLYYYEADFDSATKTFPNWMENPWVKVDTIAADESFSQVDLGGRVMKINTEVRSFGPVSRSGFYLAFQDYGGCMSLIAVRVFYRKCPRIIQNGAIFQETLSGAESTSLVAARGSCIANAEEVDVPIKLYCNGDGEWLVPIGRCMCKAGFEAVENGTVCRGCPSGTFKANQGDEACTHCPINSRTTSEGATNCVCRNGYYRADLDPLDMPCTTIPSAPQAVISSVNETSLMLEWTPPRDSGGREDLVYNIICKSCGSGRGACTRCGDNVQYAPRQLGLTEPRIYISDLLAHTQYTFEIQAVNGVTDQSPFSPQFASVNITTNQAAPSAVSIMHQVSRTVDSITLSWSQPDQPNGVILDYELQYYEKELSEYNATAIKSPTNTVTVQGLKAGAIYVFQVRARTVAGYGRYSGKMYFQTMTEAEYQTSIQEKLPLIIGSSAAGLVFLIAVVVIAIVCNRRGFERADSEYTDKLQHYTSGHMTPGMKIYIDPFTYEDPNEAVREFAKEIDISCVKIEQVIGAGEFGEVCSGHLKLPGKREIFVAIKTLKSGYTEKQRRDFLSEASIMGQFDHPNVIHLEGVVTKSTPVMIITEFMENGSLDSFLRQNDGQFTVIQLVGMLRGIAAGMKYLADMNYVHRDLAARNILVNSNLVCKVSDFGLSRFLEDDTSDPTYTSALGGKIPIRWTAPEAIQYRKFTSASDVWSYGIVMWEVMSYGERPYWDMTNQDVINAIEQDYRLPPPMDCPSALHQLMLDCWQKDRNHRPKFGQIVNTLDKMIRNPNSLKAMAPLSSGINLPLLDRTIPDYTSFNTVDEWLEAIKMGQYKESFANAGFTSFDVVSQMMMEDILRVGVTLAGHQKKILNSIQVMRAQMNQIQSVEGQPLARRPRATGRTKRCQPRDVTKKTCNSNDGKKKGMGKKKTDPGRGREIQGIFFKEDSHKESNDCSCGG
Assay protocol: phosphorylation enrichment, bacterial display (enrichment ratio); higher = better substrate or ligand; peptides without Tyr show the background
Value type: phosphorylation enrichment

Sequence string | Reported result
PLLLSYYLIKW [NUP160_Y773] | 0.947
SISLRYEGRVY [ABL1_Y167] | 0.563
RKLVDYNSARH [BIN1_Y150_D151N] | 0.338
NHFKRYNLCAE [PTEN_Y68_I67R_YF] | 0.565
TTPAVYARVTK [CTRB2_Y246_A250T] | 0.768
KKGMIYGGGGG [PSME1_Y249_T244K] | 0.363
SLNEVYTKNKT [MSH2_Y563_E562V] | 0.411
NDQPDYDSVAS [GIT2_Y392] | 0.671
PNRILYGDFWQ [MYH6_Y717_R721W] | 0.939
YFRDGHMPRQY [GSS_Y270_Y270H] | 0.462
IFETDYFRKGG [INSR_Y1189_YF] | 0.626
VTRDEYPSNPM [CEMIP2_Y1015_I1010V] | 0.417
DQGEQYKKELE [LMNA_Y259_V256G] | 0.676
GHEFIYVDRMQ [PDGFRB_Y581_P584R_YF] | 0.685

###

Target under test: Hck (UniProt P08631)
Sequence (P08631 whole entry, looked up): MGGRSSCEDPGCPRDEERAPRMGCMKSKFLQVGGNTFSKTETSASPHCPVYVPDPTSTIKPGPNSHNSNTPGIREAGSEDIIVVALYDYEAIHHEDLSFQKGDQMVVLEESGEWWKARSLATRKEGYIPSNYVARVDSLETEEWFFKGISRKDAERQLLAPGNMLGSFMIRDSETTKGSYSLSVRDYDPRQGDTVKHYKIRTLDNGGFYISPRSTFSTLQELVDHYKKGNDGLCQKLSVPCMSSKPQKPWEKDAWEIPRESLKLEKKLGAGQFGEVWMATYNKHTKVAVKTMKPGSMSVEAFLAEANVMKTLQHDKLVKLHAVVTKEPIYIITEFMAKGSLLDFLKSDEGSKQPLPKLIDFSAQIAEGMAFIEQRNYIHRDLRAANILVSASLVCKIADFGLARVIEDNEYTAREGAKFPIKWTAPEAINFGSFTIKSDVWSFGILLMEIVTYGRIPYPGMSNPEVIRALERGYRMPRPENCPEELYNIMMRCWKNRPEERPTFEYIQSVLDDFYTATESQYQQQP
Assay protocol: phosphorylation enrichment, bacterial display (enrichment ratio); higher = better substrate or ligand; peptides without Tyr show the background
The following sequences are shown together with reported phosphorylation enrichment values.

Sequence string | phosphorylation enrichment
KKCTRYIDCDR [ASPA_Y64_L69R] | 0.37
VEGIGYDFIPT [CBS_Y308] | 0.785
LNWIFYKDQTG [RS1_Y166_YF] | 0.239
KILGRYFETSS [PAX2_Y72_G76S_YF] | 0.508
FLAVGDHKPHI [IDS_Y225_Y225D] | 0.379
ANAFIYVVQLP [L1CAM_Y420_YF] | 0.693
QFQEKYKQVEQ [HCN4_Y531_YF] | 0.882
KDHPDYKFQAR [SOX10_Y171_P175A_YF] | 0.482
PNRILYGDFWQ [MYH6_Y717_R721W] | 2.16
RLSELYLRRNP [CFAP410_Y68_R73P] | 0.631
CTTNHYNYMCN [TP53_Y234_I232N] | 0.415
FIGCIYLYLTK [GARS1_Y414_R412C] | 0.373
GVPLGYPIKAP [ELN_Y206] | 0.388
SASQEYHIVKK [PDZD2_Y557] | 0.513
